assay.procedure: Spectroscopic measurements (absorption, emission, quantum yield, extinction coefficient)
Type: physicochemical
measurement.setup: BDNCA library, extinction coefficient; in M-1 cm-1 (unit assumed)
quantity.kind: ε

>>> result("CC1=CC(/C=C/c2ccc(C)c(F)c2)=[N+]2C1=C(c1ccc(NC(=O)CCl)cc1)c1cccn1[B-]2(F)F")
"71,945"
>>> result("CC1=CC(/C=C/c2ccc(O)cc2)=[N+]2C1=C(c1ccc(NC(=O)CCl)cc1)c1cccn1[B-]2(F)F")
"23,341"
>>> result("CC1=CC(/C=C/c2nccn2C)=[N+]2C1=C(c1ccc(NC(=O)CCl)cc1)c1cccn1[B-]2(F)F")
"17,849"
>>> result("CC1=CC(/C=C/c2c(C)cc(C)cc2C)=[N+]2C1=C(c1ccc(NC(=O)CCl)cc1)c1cccn1[B-]2(F)F")
"39,542"
>>> result("COc1ccc(/C=C/C2=[N+]3C(=C(c4ccc(NC(=O)CCl)cc4)c4cccn4[B-]3(F)F)C(C)=C2)cc1OCc1ccccc1")
"87,872"
>>> result("COC(=O)c1ccc(-c2ccc(/C=C/C3=[N+]4C(=C(c5ccc(NC(=O)CCl)cc5)c5cccn5[B-]4(F)F)C(C)=C3)cc2)cc1")
"52,998"
>>> result("COc1cc(/C=C/C2=[N+]3C(=C(c4ccc(NC(=O)CCl)cc4)c4cccn4[B-]3(F)F)C(C)=C2)cc(Cl)c1O")
"25,812"
>>> result("COC(=O)c1ccc(/C=C/C2=[N+]3C(=C(c4ccc(NC(=O)CCl)cc4)c4cccn4[B-]3(F)F)C(C)=C2)cc1")
"73,043"

* * *

Entries and their Qunt. Yield
assay.procedure: Spectroscopic measurements (absorption, emission, quantum yield, extinction coefficient)
Assay type: physicochemical
measurement.setup: BDNCA library
quantity.kind: Qunt. Yield

>>> number("Cc1cc(/C=C/c2ccc(CO)o2)n2c1C(c1ccc(NC(=O)CCl)cc1)=C1C=CC=[N+]1[B-]2(F)F")
0.05
>>> number("CC1=CC(/C=C/c2ccc(OCc3ccccc3)c(OCc3ccccc3)c2)=[N+]2C1=C(c1ccc(NC(=O)CCl)cc1)c1cccn1[B-]2(F)F")
0.18
>>> number("COC(=O)c1ccc(-c2ccc(/C=C/C3=[N+]4C(=C(c5ccc(NC(=O)CCl)cc5)c5cccn5[B-]4(F)F)C(C)=C3)cc2)cc1")
0.14
>>> number("COc1ccc(/C=C/C2=[N+]3C(=C(c4ccc(NC(=O)CCl)cc4)c4cccn4[B-]3(F)F)C(C)=C2)cc1Br")
0.19
>>> number("CC1=CC(/C=C/c2ccc3ccc4cccc5ccc2c3c45)=[N+]2C1=C(c1ccc(NC(=O)CCl)cc1)c1cccn1[B-]2(F)F")
0.04
>>> number("CC1=CC(/C=C/c2ccc(O)cc2)=[N+]2C1=C(c1ccc(NC(=O)CCl)cc1)c1cccn1[B-]2(F)F")
0.05
>>> number("COc1ccc(/C=C/c2cc(C)c3n2[B-](F)(F)[N+]2=CC=CC2=C3c2ccc(NC(=O)CCl)cc2)c2ccccc12")
0.06
>>> number("CC1=CC(/C=C/c2ccc(-c3cccc(Cl)c3)o2)=[N+]2C1=C(c1ccc(NC(=O)CCl)cc1)c1cccn1[B-]2(F)F")
0.04

* * *

assay.procedure: Spectroscopic measurements (absorption, emission, quantum yield, extinction coefficient)
Format: physicochemical
measurement.setup: BDNCA library
quantity.kind: Qunt. Yield

>>> result("CC1=CC(/C=C/C=C/c2ccc(N(C)C)cc2)=[N+]2C1=C(c1ccc(NC(=O)CCl)cc1)c1cccn1[B-]2(F)F")
"weak"
>>> result("CCN(CC)c1ccc(/C=C/C2=[N+]3C(=C(c4ccc(NC(=O)CCl)cc4)c4cccn4[B-]3(F)F)C(C)=C2)cc1")
"weak"
>>> result("CC(=O)OCCN(CCOC(C)=O)c1ccc(/C=C/C2=[N+]3C(=C(c4ccc(NC(=O)CCl)cc4)c4cccn4[B-]3(F)F)C(C)=C2)cc1")
"weak"
>>> result("CCCc1ccc(/C=C/C2=[N+]3C(=C(c4ccc(NC(=O)CCl)cc4)c4cccn4[B-]3(F)F)C(C)=C2)cc1")
0.09
>>> result("CCCCN(CCCC)c1ccc(/C=C/C2=[N+]3C(=C(c4ccc(NC(=O)CCl)cc4)c4cccn4[B-]3(F)F)C(C)=C2)cc1")
"weak"
>>> result("Cc1cc(/C=C/c2ccc(N(C)CCO)cc2)n2c1C(c1ccc(NC(=O)CCl)cc1)=C1C=CC=[N+]1[B-]2(F)F")
"weak"
